Below, each entry is listed with its recorded pIC50.
Target: Recombinant human cathepsin S (CatS) (Homo sapiens)
Test: Recombinant human cathepsin S (CatS) inhibition assay, fluorogenic substrate Z-Valine-Valine-Arginine-AMC
Counter-ions that a name gives are not always drawn.
The value called pIC50 is obtained by taking minus log10 of the concentration in mol/L.

Here are 4 compounds together with their reported answers.
CS(=O)(=O)N1CCc2c(c(-c3cccc(CCc4cccc(O)c4)c3)nn2CCCN2CCOCC2)C1 [Example 296]; 4.81
CS(=O)(=O)N1CCc2c(c(-c3ccc(Cl)c(CCCNS(=O)(=O)c4ccccc4C(=O)O)c3)nn2CCCN2CCC(N3CCCC3=O)CC2)C1 [Example 88, trifluoroacetic acid salt]; 6.28
CS(=O)(=O)N1CCc2c(c(-c3ccc(C(F)(F)F)c(C#CCNS(=O)(=O)c4ccccc4)c3)nn2CC(O)CN2CCOCC2)C1 (stereo not drawn) [Example 305]; 5.40
C[C@H]1COCCN1CC(O)Cn1nc(-c2ccc(Cl)c(C#Cc3ccc(CNCc4ccc(Cl)cc4)cc3)c2)c2c1CCN(C(N)=O)C2 (stereo in doubt) [Example 258]; 7.10

Enquiry: Tell us which pIC50 value is on record for CS(=O)(=O)NCc1ccc(C#Cc2cc(-c3nn(CCCN4CCOCC4)c4c3CN(S(C)(=O)=O)CC4)ccc2Cl)cc1 [Example 70]
Return: 6.57

Enquiry: Tell me pIC50 reported for CS(=O)(=O)N1CCc2c(c(-c3ccc(Cl)c(C#Cc4ccc(CNCc5ccccc5)cc4)c3)nn2CCCN2CCOCC2)C1 [Example 74]
Return: 6.37

* * *

Target: Recombinant human cathepsin S (CatS) (Homo sapiens, UniProt P25774)
Sequence (P25774 115-331): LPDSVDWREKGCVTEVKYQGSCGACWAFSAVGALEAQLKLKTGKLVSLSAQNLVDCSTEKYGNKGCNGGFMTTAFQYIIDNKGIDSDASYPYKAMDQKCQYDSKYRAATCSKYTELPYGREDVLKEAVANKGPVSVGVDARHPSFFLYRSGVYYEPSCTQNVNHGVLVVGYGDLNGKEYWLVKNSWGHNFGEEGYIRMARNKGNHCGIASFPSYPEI
Assay: Recombinant human cathepsin S (CatS) inhibition assay, fluorogenic substrate Z-Valine-Valine-Arginine-AMC;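 further: Baculovirus-expressed CatS in pH 5.0 sodium acetate buffer with DTT and NaCl, fluorescence read each minute over 20 min, inhibition derived from rate slope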
Settings: CatS IC50
# pIC50 per entry
Formally, pIC50 is defined as -log10 of the concentration c, with c in mol/L.

Below, 3 compounds whose answers are already recorded.
CS(=O)(=O)N1CCc2c(c(-c3ccc(Cl)c(C#Cc4ccc5c(c4)CN(C4CC4)CC5)c3)nn2CCCN2CCN(C3CC3)CC2)C1 [Example 276]; 6.74
NC(=O)N1CCc2c(c(-c3ccc(Cl)c(C#Cc4cccc(CNCc5ccc(Cl)cc5)c4)c3)nn2CCCN2CCSCC2)C1 [Example 171]; 6.70
C[C@H]1COCCN1CCCn1nc(-c2ccc(Cl)c(C#Cc3ccc(CNCc4cccs4)cc3)c2)c2c1CCN(S(C)(=O)=O)C2 [Example 433]; 6.62

Enquiry: State, in one line, measured pIC50 of C[C@H]1COCCN1CCCn1nc(-c2ccc(Cl)c(C#Cc3ccc(CNCc4ccsc4)cc3)c2)c2c1CCN(S(C)(=O)=O)C2 [Example 434]
Return: 6.70

Enquiry: # return recorded pIC50 for entry CC(C)(C)OC(=O)N1CCc2ccc(C#Cc3cc(-c4nn(CCCN5CCC(C(N)=O)CC5)c5c4CN(S(C)(=O)=O)CC5)ccc3Cl)cc2C1 [Example 374]
Return: 6.80

Enquiry: Give a short answer stating reported pIC50 for CS(=O)(=O)N1CCc2c(c(-c3ccc(Cl)c(C#Cc4ccc(CNC5CCC5)cc4)c3)nn2CCCN2CCOCC2)C1 [Example 324] .
Return: 5.87

Enquiry: Provide pIC50 value for the following compound: COc1ccc(C#Cc2cc(-c3nn(CCCN4CCOCC4)c4c3CN(S(C)(=O)=O)CC4)ccc2Cl)cc1 [Example 32]
Return: 6.31

Enquiry: Give recorded pIC50. CS(=O)(=O)N1CCc2c(c(-c3ccc(Cl)c(C#Cc4ccc(CN[C@@H](CO)c5ccccc5)cc4)c3)nn2CCCN2CCOCC2)C1 [Example 209]
Return: 7.00

Enquiry: For NC(=O)C(=O)N1CCc2c(c(-c3ccc(Cl)c(C#Cc4ccc(Cl)c(C(=O)N5CCNCC5)c4)c3)nn2CCCN2CCSCC2)C1 [Example 568] , write its pIC50.
Return: 6.85

Enquiry: Name the recorded pIC50 of the item CS(=O)(=O)N1CCc2c(c(-c3ccc(Cl)c(C#Cc4cccc(CNCC5CCOCC5)c4)c3)nn2CCCN2CCOCC2)C1 [Example 185] in your answer.
Return: 6.28

Enquiry: Quickly give me recorded pIC50 for O=C(C1CCCO1)N1CCc2c(c(-c3ccc(Cl)c(C#Cc4ccc(Cl)cc4)c3)nn2CCCN2CCOCC2)C1 (stereo not shown) [Example 141]
Return: 6.51

Enquiry: Supply measured pIC50 of CS(=O)(=O)N1CCc2c(c(-c3ccc(Cl)c(C#Cc4ccc5c(c4)CCN(CC4CC4)C5)c3)nn2CCCN2CCOCC2)C1 [Example 505] in your reply.
Return: 6.20

Enquiry: Retrieve pIC50 measured for CC1CCN(CCCn2nc(-c3ccc(Cl)c(C#Cc4ccc(CNCc5ccc(Cl)cc5)cc4)c3)c3c2CCN(S(C)(=O)=O)C3)CC1 [Example 344] and print it.
Return: 7.22
